Assignment: determine reported pIC50 for the given compounds.
# Test System: Heat shock protein HSP 90-alpha (Homo sapiens, UniProt P07900)
Value format note: pIC50 is -log10 of concentration (mol/L); just state the number.

Name the reported pIC50 value associated with the compound CCCC1Cc2cc(-n3nc(C)c4c3CC(C)(C)CC4=O)cc(N[C@H]3CC[C@H](O)CC3)c2C(=O)N1 (some centres not stated)
5.80

What value of pIC50 has been recorded for this entry: CCc1cc2cc(-n3nc(C)c4c3CC(C)(C)CC4=O)cc(N[C@H]3CC[C@H](O)CC3)c2c(=O)[nH]1
6.74

Looking for the measured pIC50 of Cc1nn(-c2cc(N[C@H]3CC[C@H](O)CC3)c3c(=O)[nH]c(CO)cc3c2)c2c1C(=O)CC(C)(C)C2 , can you help?
6.08

If you can, please state the reported pIC50 value of Cc1nn(-c2cc(N[C@H]3CC[C@H](O)CC3)c3c(=O)[nH]c(C(C)C)cc3c2)c2c1C(=O)CC(C)(C)C2 .
6.76

Would you kindly share the measured pIC50 for Cc1nn(-c2cc(N[C@H]3CC[C@H](O)CC3)c3c(=O)[nH]c(C4CC4)cc3c2)c2c1C(=O)CC(C)(C)C2 ?
5.73

Which measured pIC50 value corresponds to CCCc1cc2cc(-n3nc(C)c4c3CC(C)(C)CC4=O)cc(N3CCN(C)CC3)c2c(=O)[nH]1 ?
5.07

I'd like to know its pIC50. The compound in question is COCc1cc2cc(-n3nc(C)c4c3CC(C)(C)CC4=O)cc(N[C@H]3CC[C@H](O)CC3)c2c(=O)[nH]1
6.51

Reported pIC50, compound Cc1cc2cc(-n3nc(C)c4c3CC(C)(C)CC4=O)cc(N[C@H]3CC[C@H](O)CC3)c2c(=O)[nH]1 : ____
6.53

Request the reported pIC50 associated with CCCc1cc2cc(-n3nc(C)c4c3CC(C)(C)CC4=O)cc(NC3CCN(C)CC3)c2c(=O)[nH]1
4.77
